system.name: UniProtKB O15851
Sequence (O15851 1-311): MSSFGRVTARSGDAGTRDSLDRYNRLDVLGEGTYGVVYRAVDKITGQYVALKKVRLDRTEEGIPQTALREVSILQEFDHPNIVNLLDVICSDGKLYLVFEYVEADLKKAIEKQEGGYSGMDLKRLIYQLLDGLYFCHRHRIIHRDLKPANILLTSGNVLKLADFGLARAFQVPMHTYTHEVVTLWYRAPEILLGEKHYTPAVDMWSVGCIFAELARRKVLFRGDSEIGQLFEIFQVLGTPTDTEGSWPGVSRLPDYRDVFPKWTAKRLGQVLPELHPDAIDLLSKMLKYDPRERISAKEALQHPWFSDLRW
Sequence (Q4Q4U0 1-303 partner): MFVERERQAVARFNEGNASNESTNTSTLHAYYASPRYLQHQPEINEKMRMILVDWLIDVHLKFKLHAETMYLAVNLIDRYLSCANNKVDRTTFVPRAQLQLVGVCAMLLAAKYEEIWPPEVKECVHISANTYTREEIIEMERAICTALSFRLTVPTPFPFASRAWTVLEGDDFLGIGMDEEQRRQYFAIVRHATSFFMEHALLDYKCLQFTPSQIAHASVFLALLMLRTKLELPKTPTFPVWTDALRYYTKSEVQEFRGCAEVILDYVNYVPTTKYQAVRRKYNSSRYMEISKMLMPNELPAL
test.name: radiometric CRK3 assay
Format: biochemical, L. mexicana CRK3, L. major CYC6
test.conditions: CRK3–CYC6 IC50 [μM], mean of two or more experiments; 1 μM ATP
measured.metric: IC50 (µM)

Below, each entry is followed by its recorded IC50 result.
molecule | measured.metric | result.unit | data.value
CC1(C)CC(=O)C=C(NC(=O)Nc2ccccc2)C1 [Compound 50] | IC50 | µM | 0.095
Cc1cccc(-c2ccc3nc(NCC4CCCCC4)nn3c2)c1 [Compound 36] | IC50 | µM | 3
O=C(Nc1cc(-c2ccc(Cl)cc2)[nH]n1)C1CCC1 [Compound 7] | IC50 | µM | 0.9

(a) COc1cccc(NC(=O)NC2=CC(=O)CC(C)(C)C2)c1 [Compound 56]
(b) CC1(C)CC(=O)C=C(NC(=O)Nc2ccc(OCc3ccccc3)cc2)C1 [Compound 58]
(c) CC(=O)Nc1cc(-c2ccc(Cl)cc2)n[nH]1 [Compound 2]
(d) COc1ccc(NC(=O)NC2=CC(=O)CC(C)(C)C2)cc1 [Compound 57]
(e) COc1ccccc1NC(=O)NC1=CC(=O)CC(C)(C)C1 [Compound 55]
Problem: # desc sort on IC50 across 5 molecules As an answer, provide the labels arranged in the order called for.
Result: e, c, d, b, a
(e: 8 µM, c: 3 µM, d: 0.89 µM, b: 0.11 µM, a: 0.04 µM)

Recorded values, source paper PMC3272345.
